tested on: HEK293; assay: Cytotoxic Profiling of Annotated Libraries Using Quantitative High-Throughput Screening (AID 1296008); settings: Five cell lines viability, CellTiter-Glo ATP luminescence, 48-72 h; note: potency is the fitted concentration of half-maximal effect; nearly all actives have a fitted effect of over 60% in size
Results filed as inconclusive are left out. Calls of active or inactive are those of the source. Calls come from the whole dose curve; as a rule, active = well fitted inhibition curve with a large enough effect; inconclusive = small, poorly fitted or top-dose-only effect; inactive = flat fitted curve, though single readings scatter.
measured parameter: Potency

Value wanted: Potency (HEK293) of entry `COc1cc(S(C)(=O)=O)ccc1Nc1nc2ccc(-c3ccc(NC(=O)[C@H](C)c4ccc(F)cc4)cc3)cn2n1` 0.331 µM (active)

Repeat for the following compound: `C=C1C(=O)O[C@@H]2C[C@H](C)[C@@H]3CC(=O)C(C)=C3C[C@H]12` 8.2 µM (active)

Quick one: `CCCCCCOC(=O)/N=C(\N)c1ccc(NCc2nc3cc(C(=O)N(CCC(=O)OCC)c4ccccn4)ccc3n2C)cc1` 18.4 µM (active)
